Would you kindly list viability, T/C for each of these molecules?
tested on: 292921-168-R-J2-PDC KRAS tumor spheroid viability; assay: Anticancer human tumor 292921-168-R-J2-PDC patient-derived pancreatic carcinoma cell line growth inhibition [KRAS2]; conditions: second compound 1 µM; first compound 0.1 µM; active compounds read low; spheroids with HUVEC and MSC
Give bare numbers, in %.

Please review the entries below; each comes with its answer.
molecule: CC(C)NCC(C(=O)N1CCN(c2ncnc3c2C(C)CC3O)CC1)c1ccc(Cl)cc1 (stereo not drawn) + CC1OCC2(CCN(c3cnc(Sc4ccnc(N)c4Cl)c(N)n3)CC2)C1N
experimental readout: viability, T/C
recorded number: 42.9
--
molecule: Cn1ncnc1[C@H]1c2n[nH]c(=O)c3cc(F)cc(c23)N[C@@H]1c1ccc(F)cc1 + C=CC(=O)N1CCN(c2nc(OCC3CCCN3C)nc3c2CCN(c2cccc4cccc(C)c24)C3)CC1CC#N
experimental readout: viability, T/C
recorded number: 28.3
--
molecule: CN(C)C/C=C/C(=O)Nc1cc2c(Nc3ccc(F)c(Cl)c3)ncnc2cc1O[C@H]1CCOC1 + CNCc1ccccc1-c1csc(C(C)Nc2nc(C)nc3cc(OC)c(OC)cc23)c1
experimental readout: viability, T/C
recorded number: 43.7
--
molecule: CC(=O)OC12COC1CC(O)C1(C)C(=O)C(O)C3=C(C)C(OC(=O)C(O)C(NC(=O)OC(C)(C)C)c4ccccc4)CC(O)(C(OC(=O)c4ccccc4)C21)C3(C)C (stereo not drawn) + C=CC(=O)N1CCN(c2nc(=O)n(-c3c(C)ccnc3C(C)C)c3nc(-c4c(O)cccc4F)c(F)cc23)C(C)C1
experimental readout: viability, T/C
recorded number: 14.9
--
molecule: O=C(c1cc(Cc2n[nH]c(=O)c3ccccc23)ccc1F)N1CCN(C(=O)C2CC2)CC1 + CC1OCC2(CCN(c3cnc(Sc4ccnc(N)c4Cl)c(N)n3)CC2)C1N
experimental readout: viability, T/C
recorded number: 120

For each listed entry, give its viability, T/C.
1. CCNC(=O)CC1N=C(c2ccc(Cl)cc2)c2cc(OC)ccc2-n2c(C)nnc21 (stereo not drawn) + CC1OCC2(CCN(c3cnc(Sc4ccnc(N)c4Cl)c(N)n3)CC2)C1N
2. CC1COCCN1c1cc(-c2ccnn2C)c2ccnc(-c3ccn[nH]3)c2n1 (stereo not drawn) + COc1cc2nc(C)nc(NC(C)c3cc(N)cc(C(F)(F)F)c3)c2cc1OC1CCOC1
3. O=C(c1cc(Cc2n[nH]c(=O)c3ccccc23)ccc1F)N1CCN(C(=O)C2CC2)CC1 + COc1cc2nc(C)nc(NC(C)c3cc(N)cc(C(F)(F)F)c3)c2cc1OC1CCOC1

Reply:
1. 43.7
2. 9.3
3. 116

----------
Would you kindly list viability, T/C for each of these compounds?
tested on: 292921-168-R-J2-PDC KRAS tumor spheroid viability; assay: Anticancer human tumor 292921-168-R-J2-PDC cell line growth inhibition [KRAS2]; conditions: second compound 10 µM; first compound 0.316 µM; active compounds read low; spheroids with HUVEC and MSC;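 note: drug exposure lasted seven days after spheroids formed for three days; percent of DMSO vehicle control viability which is 100%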
Answers are plain numbers, in %.

Please review the entries below; each comes with its answer.
compound: CC(C)NCC(C(=O)N1CCN(c2ncnc3c2C(C)CC3O)CC1)c1ccc(Cl)cc1 (stereo not given) + COc1cc2nc(C)nc(NC(C)c3cc(N)cc(C(F)(F)F)c3)c2cc1OC1CCOC1
unit annotation: %
viability, T/C: 18.6
//
compound: CC1OCC2(CCN(c3cnc(Sc4ccnc(N)c4Cl)c(N)n3)CC2)C1N (stereo not given) + C=CC(=O)N1CCN(c2nc(=O)n(-c3c(C)ccnc3C(C)C)c3nc(-c4c(O)cccc4F)c(F)cc23)C(C)C1
unit annotation: %
viability, T/C: 16.3
//
compound: COc1cc(Nc2ncc3c(n2)-c2ccc(Cl)cc2C(c2c(F)cccc2OC)=NC3)ccc1C(=O)O + C=CC(=O)N1CCN(c2nc(=O)n(-c3c(C)ccnc3C(C)C)c3nc(-c4c(O)cccc4F)c(F)cc23)C(C)C1
unit annotation: %
viability, T/C: 35.2

For each listed entry, give its viability, T/C.
1. COC(=O)c1ccc2c(C(=Nc3ccc(N(C)C(=O)CN4CCN(C)CC4)cc3)c3ccccc3)c(O)[nH]c2c1 + CNCc1ccccc1-c1csc(C(C)Nc2nc(C)nc3cc(OC)c(OC)cc23)c1
2. CC(=O)OC12COC1CC(O)C1(C)C(=O)C(O)C3=C(C)C(OC(=O)C(O)C(NC(=O)OC(C)(C)C)c4ccccc4)CC(O)(C(OC(=O)c4ccccc4)C21)C3(C)C (stereo not given) + COc1cc2nc(C)nc(NC(C)c3cc(N)cc(C(F)(F)F)c3)c2cc1OC1CCOC1
3. CC1(C)CCC(CN2CCN(c3ccc(C(=O)NS(=O)(=O)c4ccc(NCC5CCOCC5)c([N+](=O)[O-])c4)c(Oc4cnc5[nH]ccc5c4)c3)CC2)=C(c2ccc(Cl)cc2)C1 + CNCc1ccccc1-c1csc(C(C)Nc2nc(C)nc3cc(OC)c(OC)cc23)c1
4. Cn1nccc1Nc1nccc(-c2cc3c(s2)C(C)(C)N(CCN2CCOCC2)C3=O)n1 + COc1cc2nc(C)nc(NC(C)c3cc(N)cc(C(F)(F)F)c3)c2cc1OC1CCOC1
5. CC(C)NCC(C(=O)N1CCN(c2ncnc3c2C(C)CC3O)CC1)c1ccc(Cl)cc1 (stereo not given) + CNCc1ccccc1-c1csc(C(C)Nc2nc(C)nc3cc(OC)c(OC)cc23)c1
6. CC(=O)OC12COC1CC(O)C1(C)C(=O)C(O)C3=C(C)C(OC(=O)C(O)C(NC(=O)OC(C)(C)C)c4ccccc4)CC(O)(C(OC(=O)c4ccccc4)C21)C3(C)C (stereo not given) + C=CC(=O)N1CCN(c2nc(=O)n(-c3c(C)ccnc3C(C)C)c3nc(-c4c(O)cccc4F)c(F)cc23)C(C)C1

Reply:
1. 0.19
2. 12.8
3. 0.23
4. 10.3
5. 0.25
6. 15.3

Query: In one line, give reported viability, T/C of the entry COc1cc(Nc2ncc3c(n2)-c2ccc(Cl)cc2C(c2c(F)cccc2OC)=NC3)ccc1C(=O)O + COc1cc2nc(C)nc(NC(C)c3cc(N)cc(C(F)(F)F)c3)c2cc1OC1CCOC1 .
Reply: 11.6
